// provenance: ChEMBL document CHEMBL1157539

Form field: Inhibition (one value per entry).
- Test system: Plasmodium falciparum
- Protocol: GSK_TCMDC: Inhibition of Plasmodium falciparum Dd2 in whole red blood cells, using parasite LDH activity as an index of growth. Test compounds present at 2uM
- Format: functional
Respond numerically; units are % and should not be typed.

> print(dat)
                                   compound  data.value
1  CCOc1cc(C(=O)N[C@@H](Cc2ccccc2)[C@H](O)CNC(C)(C)c2cccc(OC)c2)cc(N2CCCS2(=O)=O)c1          99
2  CN1CCN(CCCCCNc2c3ccccc3nc3ccccc23)CC1.Cl           0
3  CC(=O)Nc1ccc(CN(Cc2ccc(C)cc2)Cc2cccc(Oc3ccccc3)c2)cc1          87
4  NC1=NC2(CCCCC2)N(OCCCCCCCCNc2nc(N)nc(N)n2)C(N)=N1.O=C(O)C(F)(F)F          99
5  COc1ccc(S(=O)(=O)N2CCC3(CC2)OCC(=O)NC3c2ccc(Cl)c(Cl)c2)cc1 (centres undefined)          44
6  Br.Oc1ccccc1CCNCC1CCc2ccccc2C1 (centres undefined)          98

// Input: CCOC(=O)c1ccc(NC(=O)NNC(=O)c2ccc(CCN3CCC(c4nc(COCC(F)(F)F)c(-c5ccc(F)cc5)o4)CC3)cc2)cc1 . Output its Inhibition only. 67

// Input: COc1cc(C(F)(F)F)cc2[nH]c(CNCCCNc3nc4ccccc4[nH]3)cc12 . Output its Inhibition only. 2

// Input: COc1ccc2c(N/N=C/c3ccccc3[N+](=O)[O-])ccnc2c1 . Output its Inhibition only. 97

====

- Tested on: HepG2
- Protocol: GSK_TCMDC: Percent inhibition of human HepG2 cell line. Test compounds present at 10uM.
- Format: functional
Measure Name: Inhibition (%)
Respond numerically; units are % and should not be typed.

Field: example entries. Status: answers known.
> print(dat)
                                   molecule  measure.name  uom  data.value
1  COc1ccc2nccc(N3CCCN(CCNS(=O)(=O)c4ccc5c(c4)NC(=O)CS5)CC3)c2n1.Cl    Inhibition    %           0
2  CCc1cn2c3c(cc(C(=O)N[C@@H](Cc4ccccc4)[C@H](O)CNC4CCCC4)cc13)N(C)S(=O)(=O)CC2    Inhibition    %           6
3                 O=C(O)CCSc1ncnc2[nH]cnc12    Inhibition    %           7
4  Cc1cc(N[C@@H](Cc2ccccc2)C(=O)NCCOc2ccccc2)nc(NCCc2cccs2)n1.O=C(O)C(F)(F)F    Inhibition    %           8

// Input: COc1ccccc1COc1c(C)nc(N)nc1N.Cl . Output its Inhibition only. 32

// Input: O=C(NCCc1ccccc1)N(Cc1ccc(-c2cccc(CN3CCNCC3)c2)cc1)C1CCN(Cc2ccccc2)CC1.O=C(O)C(F)(F)F . Output its Inhibition only. 27

// Input: CCOC(=O)CNCC(=O)c1ccc(OCc2ccccc2)cc1.Cl . Output its Inhibition only. 4

// Input: CC1(CCc2ccccc2)N=C(Nc2ccc(Cl)cc2)N=C(N)C1c1ccc(Cl)c(Cl)c1 (stereo not given) . Output its Inhibition only. 81

// Input: CC(C)n1ncc2c(C(=O)N3CCCC4CCCCC43)cc(C3CC3)nc21 (stereo not given) . Output its Inhibition only. 7

// Input: O=C(NC1CCC(N2CCC(c3ccccc3C(F)(F)F)CC2)CC1)c1cc2ccccc2[nH]1 (stereo not given) . Output its Inhibition only. 80

// Input: COc1ccc(Nc2ncc(C#N)c(Nc3ccccc3C(N)=O)n2)cc1N1CCN(C)CC1.Cl . Output its Inhibition only. 56

// Input: Cc1cc(NC(=O)Nc2ccc3sccc3c2)c2ccccc2n1 . Output its Inhibition only. 41

// Input: Cc1ccc(-n2c(C)cc(C(=O)CN3C(=O)NC(Cc4ccccc4)C3=O)c2C)cc1 (stereo not given) . Output its Inhibition only. 0

// Input: CCN(CC)C(=O)C(=O)c1c[nH]c2ccc(Cl)cc12 . Output its Inhibition only. 1

// Input: C=C1C(C(=O)OCC)=CN(CC)c2cc(O[C@@H]3CCN(C(=O)OC(C)(C)C)C3)ccc21 . Output its Inhibition only. 13

// Input: COc1cc2nc(NCC3CCN(c4nc(N)c5cc(OC)c(OC)cc5n4)CC3)nc(N)c2cc1OC . Output its Inhibition only. 12

// Input: C=C(NC(=O)c1cc(C)cc(C)c1)C(=O)OC . Output its Inhibition only. 21

// Input: C(=Cc1ccccc1)C=NN=c1cc[nH]c2ccccc12 . Output its Inhibition only. 24

// Input: CN(CCCCNC(=O)/C=C/c1ccccc1)C1CC2(CCN(C(=O)OC(C)(C)C)CC2)c2ccccc21 (stereo not given) . Output its Inhibition only. 11

// Input: CC1(C)C(=O)Nc2ccccc2N1C(=O)CN1CCN(c2ccccc2O)CC1 . Output its Inhibition only. 7

====

Form field: Inhibition (one value per entry).
- System: Plasmodium falciparum
- Protocol: GSK_TCMDC: Inhibition of Plasmodium falciparum Dd2 in whole red blood cells, using parasite LDH activity as an index of growth. Test compounds present at 2uM
- Assay type: functional
Respond numerically; units are % and should not be typed.

> print(dat)
                                   compound  uom  data.value
1             N=c1[nH]c2cccc3ccc4cccc1c4c32    %          69
2  CCCCCCCOc1ccc(NC(=O)Nc2ccc(Cn3ncc(N4CCCNCC4)c(Cl)c3=O)cc2)cc1.O=C(O)C(F)(F)F    %          28

// Input: COc1ccc(Nc2nccc(N3CCC(NC(=O)Nc4ccc5c(c4)OCO5)C3)n2)cc1 (centres undefined) . Output its Inhibition only. 57

// Input: COc1cccc(C(=O)Nc2ccc(Nc3nc(C)cc(N(C)C)n3)cc2)c1OC . Output its Inhibition only. 9

// Input: Cc1cc(N(C)C)nc(Nc2ccc(NC(=O)c3ccccc3Cl)cc2)n1 . Output its Inhibition only. 31

// Input: Br.CCOC(=O)c1cc(Cl)cc(Cl)c1OCCCON1C(=N)N=C(N)NC1(C)C . Output its Inhibition only. 97

// Input: Cc1cc(F)ccc1Nc1nc(N(C)c2ccccc2)c2cccc(OCCO)c2n1 . Output its Inhibition only. 94

// Input: O=C(NCc1cccc(Cl)c1)c1ccc(CNC2CCN(Cc3ccccc3)CC2)cc1.O=C(O)C(F)(F)F . Output its Inhibition only. 50

// Input: Cc1cccc2nc(-c3ccc(-c4ccc(CN5CCN(c6ccc(C#N)cn6)CC5)cc4)s3)[nH]c12.O=C(O)C(F)(F)F . Output its Inhibition only. 44

====

- System: HepG2
- Protocol: GSK_TCMDC: Percent inhibition of human HepG2 cell line. Test compounds present at 10uM.
- Type: functional
fulfilled if Inhibition is below 10%. not fulfilled if not; exact matches included in not fulfilled.

Example cases with answers are listed next.
> print(dat)
                                   molecule  assayed.system  class.assignment
1  COc1cc(-c2nc(-c3ccccc3)c(-c3ccccc3)[nH]2)cc(OC)c1O           HepG2         fulfilled
2  Cc1n[nH]c2cc(Nc3nccc(Nc4ccc(Oc5ccccc5)cc4)n3)ccc12.Cl           HepG2         fulfilled
3  O=C(/C=C/c1ccc(Cl)c(Cl)c1)NCCCCCN1CCC(CCNC(=O)c2snnc2-c2ccccc2)CC1           HepG2     not fulfilled
4          Nc1c2ccccc2nc2ccc(-c3ccccc3)cc12           HepG2     not fulfilled
5  COc1ccc(-c2ccc(NC(=O)c3ccc(C#N)cc3)cc2)cc1CN1CCCC1.O=C(O)C(F)(F)F           HepG2     not fulfilled

Strictly below 10%: is that where Inhibition of COc1ccc2nccc(N3CCC(CCNCc4cc5c(cn4)OCCO5)CC3)c2c1.Cl sits? not fulfilled

Strictly below 10%: is that where Inhibition of CC(=O)Nc1ccc(S(=O)(=O)NC2=NC(=N)N(OCc3ccc(Cl)c(Cl)c3)C(C)(C)N2)cc1 sits? not fulfilled

Strictly below 10%: is that where Inhibition of O=C(Nc1cccc(C(F)(F)F)c1)NC1CCN(c2ccnc3cc(Cl)ccc23)CC1.O=C(O)C(F)(F)F sits? not fulfilled

Strictly below 10%: is that where Inhibition of CC(=O)c1ccc(-n2ccnc2)cc1 sits? fulfilled

Strictly below 10%: is that where Inhibition of CC(=O)c1ccc(N2C(=O)C3C(Cc4ccc(OC(C)(C)C)cc4)NC4(C(=O)N(Cc5ccc(C(C)(C)C)cc5)c5ccccc54)C3C2=O)cc1 (stereo not given) sits? not fulfilled
